- Target desc: hASK1 (Homo sapiens (Human), UniProt Q99683)
- Sequence (Q99683 whole entry): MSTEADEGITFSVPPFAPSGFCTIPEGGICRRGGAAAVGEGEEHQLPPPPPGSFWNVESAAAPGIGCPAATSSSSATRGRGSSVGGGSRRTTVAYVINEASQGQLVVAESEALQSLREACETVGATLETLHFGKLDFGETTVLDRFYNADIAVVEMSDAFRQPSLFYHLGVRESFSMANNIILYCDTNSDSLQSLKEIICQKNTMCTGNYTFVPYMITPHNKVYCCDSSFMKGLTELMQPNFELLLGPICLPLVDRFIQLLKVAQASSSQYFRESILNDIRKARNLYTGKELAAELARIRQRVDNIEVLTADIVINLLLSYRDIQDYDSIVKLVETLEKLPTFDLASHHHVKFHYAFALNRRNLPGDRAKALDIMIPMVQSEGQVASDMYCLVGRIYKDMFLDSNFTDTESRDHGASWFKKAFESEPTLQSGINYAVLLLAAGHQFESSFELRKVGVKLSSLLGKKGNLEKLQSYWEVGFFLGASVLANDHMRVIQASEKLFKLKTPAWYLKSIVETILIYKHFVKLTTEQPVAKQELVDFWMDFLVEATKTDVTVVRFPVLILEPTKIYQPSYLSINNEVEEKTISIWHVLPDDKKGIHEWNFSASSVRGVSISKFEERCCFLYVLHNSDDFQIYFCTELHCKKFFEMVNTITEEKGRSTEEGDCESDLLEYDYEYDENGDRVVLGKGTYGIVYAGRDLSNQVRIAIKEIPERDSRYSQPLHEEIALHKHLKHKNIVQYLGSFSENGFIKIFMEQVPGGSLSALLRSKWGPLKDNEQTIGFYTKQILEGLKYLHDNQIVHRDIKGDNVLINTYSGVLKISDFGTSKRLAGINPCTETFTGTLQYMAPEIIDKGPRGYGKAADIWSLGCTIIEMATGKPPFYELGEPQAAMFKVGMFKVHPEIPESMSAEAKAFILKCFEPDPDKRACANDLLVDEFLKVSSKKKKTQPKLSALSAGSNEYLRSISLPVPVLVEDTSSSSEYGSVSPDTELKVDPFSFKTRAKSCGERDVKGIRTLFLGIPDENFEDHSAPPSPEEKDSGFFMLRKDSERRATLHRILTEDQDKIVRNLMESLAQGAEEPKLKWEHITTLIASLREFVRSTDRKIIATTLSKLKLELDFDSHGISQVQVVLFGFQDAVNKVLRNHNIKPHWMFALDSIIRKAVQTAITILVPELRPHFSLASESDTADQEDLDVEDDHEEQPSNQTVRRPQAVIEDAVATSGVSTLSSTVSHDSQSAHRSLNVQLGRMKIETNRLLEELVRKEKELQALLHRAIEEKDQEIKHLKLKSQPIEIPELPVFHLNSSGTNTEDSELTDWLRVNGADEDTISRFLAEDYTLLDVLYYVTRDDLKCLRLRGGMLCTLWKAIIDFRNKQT
- Assay method text: ASK1 biochemical assay (IMAP technology)
- Setup conditions: 150 μM ATP, 6 nM hASK1
Endpoint label: Inhibition (pIC50) ASK1
Please reply with the value in numeric form only.

// below: answered compounds
{"columns": ["Compound", "Inhibition (pIC50) ASK1"],
 "data": [
  ["Cc1c[nH]c2ncnc(N3CCC(NC(=O)c4cc(N)ncc4F)CC3)c12 [Compound 1]", 8.24],
  ["Nc1cc(C(=O)NC2CCN(c3ncnc4[nH]cc(Cl)c34)CC2)ccn1 [Compound 4]", 8.46]
]}

Summary: Cc1cnc(N)cc1C(=O)NC1CCN(c2ncnc3[nH]cc(C)c23)CC1 [Compound 2] , hASK1 (Homo sapiens (Human), UniProt Q99683), Inhibition (pIC50) ASK1 = 8.17

* * *

Listed here: items and their measured Inhibition (pIC50) ASK1.
- Target desc: Full length human ASK1 protein (Homo sapiens (Human), UniProt Q99683)
- Sequence (Q99683 whole entry): as above
- Assay method text: ASK1 biochemical assay (AlphaScreen technology, MKK7 phosphorylation)
- Setup conditions: 150 μM ATP, 400 nM MKK7, 0.8 nM ASK1
Give a plain numeric answer without units written out.

Study these solved cases before continuing.
{"columns": ["Compound", "Target desc", "Endpoint label", "Reading"],
 "data": [
  ["Cc1c[nH]c2ncnc(N3CCC(NC(=O)c4cc(N)ncc4Cl)CC3)c12 [Compound 3]", "Full length human ASK1 protein (Homo sapiens (Human), UniProt Q99683)", "Inhibition (pIC50) ASK1", 8.7],
  ["Cc1c[nH]c2ncnc(N3CCC(NC(=O)c4cc(N)ncc4F)CC3)c12 [Compound 1]", "Full length human ASK1 protein (Homo sapiens (Human), UniProt Q99683)", "Inhibition (pIC50) ASK1", 8.72]
]}

# input for lookup
Just so you know, measured Inhibition (pIC50) ASK1 for Nc1cc(C(=O)NC2CCN(c3ncnc4[nH]cc(Cl)c34)CC2)ccn1 [Compound 4] came out at 9.4

* * *

- System: ASK1/2 (phospho-MKK3 in H2O2-stimulated PBMCs)
- Assay method text: ASK1/2 cellular assay: phospho-MKK3 in H2O2-stimulated PBMCs, western blot
- Assay type: cell-based
- Setup conditions: PBMC, 0.5 h, 3 mM H2O2, 30 min, read-out: Inhibition (pIC50) (converted)
Please note: IC50 exactly at 10 nM is 0 (no). Only values below 10 nM get 1 (yes).

// known answers, use as guide
{"columns": ["Structure smiles string", "Target desc", "Class assignment"],
 "data": [
  ["Cc1c[nH]c2ncnc(N3CCC(NC(=O)c4cc(N)ncc4F)CC3)c12", "ASK1/2 (phospho-MKK3 in H2O2-stimulated PBMCs)", "1 (yes)"],
  ["Nc1cc(C(=O)NC2CCN(c3ncnc4[nH]cc(Cl)c34)CC2)c(F)cn1", "ASK1/2 (phospho-MKK3 in H2O2-stimulated PBMCs)", "1 (yes)"],
  ["Nc1cc(C(=O)NC2CCN(c3ccnc4[nH]cc(Cl)c34)CC2)c(F)cn1", "ASK1/2 (phospho-MKK3 in H2O2-stimulated PBMCs)", "0 (no)"],
  ["Cc1cnc(N)cc1C(=O)NC1CCN(c2ncnc3[nH]cc(C)c23)CC1", "ASK1/2 (phospho-MKK3 in H2O2-stimulated PBMCs)", "1 (yes)"],
  ["Nc1cc(C(=O)NC2CCN(c3ncnc4[nH]cc(Cl)c34)CC2)ccn1", "ASK1/2 (phospho-MKK3 in H2O2-stimulated PBMCs)", "1 (yes)"]
]}

Please determine if `Cc1c[nH]c2ncnc(N3CCC(NC(=O)c4cc(N)ncc4Cl)CC3)c12` is below 10 nM in terms of IC50. 0 (no)

Given the entry `Cc1c[nH]c2ncc(C#N)c(N3CCC(NC(=O)c4cc(N)ncc4F)CC3)c12` , would its reported IC50 be below 10 nM? 0 (no)
